# Test system: Staphylococcus aureus ATCC 29213
# Assay name: ≥ marks a high value that may be exact or a test limit, other limits are often not marked, values filed in µg/mL are converted to µM
Entries and their MIC
Readout type: MIC (µM)

* C[C@H](NC(=O)[C@H](C)NC(=O)[C@H](CCCCN)NC(=O)[C@H](C)NC(=O)[C@H](C)NC(=O)[C@H](C)NC(=O)[C@H](CCCCN)NC(=O)[C@H](Cc1c[nH]c2ccccc12)NC(=O)[C@@H](N)Cc1c[nH]c2ccccc12)C(=O)N[C@@H](C)C(=O)N[C@@H](CCCCN)C(=O)N[C@@H](Cc1c[nH]c2ccccc12)C(=O)N[C@@H](Cc1c[nH]c2ccccc12)C(N)=O | 4
* CC[C@H](C)[C@H](NC(=O)[C@H](CCCN=C(N)N)NC(=O)[C@H](C)NC(=O)[C@@H](NC(=O)[C@@H](NC(=O)[C@H](CCCN=C(N)N)NC(=O)[C@@H](N)CCCCN)[C@@H](C)CC)C(C)C)C(=O)N[C@@H](CCCCN)C(=O)N[C@@H](C)C(=O)N[C@@H](C)C(=O)N[C@@H](CC(C)C)C(=O)N[C@@H](CCCN=C(N)N)C(=O)O | 5
* CC(=O)N[C@@H](CCCCN)C(=O)N1CCC[C@H]1C(=O)N[C@@H](CC(C)C)C(=O)N[C@@H](CCCCN)C(=O)N[C@@H](CC(C)C)C(=O)N[C@@H](CC(C)C)C(=O)N[C@@H](CCCCN)C(=O)N[C@@H](CCCCN)C(=O)N[C@@H](CC(C)C)C(=O)N[C@@H](CC(C)C)C(=O)N[C@@H](CCCCN)C(=O)N[C@@H](CC(C)C)C(=O)N[C@@H](CC(C)C)C(=O)N[C@@H](CCCCN)C(N)=O | 7.07
